test system: CCRF-CEM leukemia; assay: NCI tumour cell line growth inhibition, 48 h; in the data active = GI50 below about 0.43 µM; inactive = the rest
Permitted responses: T = active, F = inactive

Please review the following examples before continuing.
>>> class_name("Cc1cc2nc3c4cccc(O)c4n(CCN(C)C)c3nc2cc1C")
"F"
>>> class_name("O=[N+]([O-])/C=C/c1ccc([N+](=O)[O-])cc1")
"F"
>>> class_name("COc1cc(-c2n/c(=C\\c3c(O)[nH]c4ccccc34)cc3c2=Nc2ccccc2-3)cc(OC)c1OC")
"F"
>>> class_name("Oc1ccc(CN(Cc2ccc(C(F)(F)F)cc2)Cc2ccc(O)c3ncccc23)c2cccnc12")
"T"
>>> class_name("CCC(=O)c1ccc2c(c1)N(CCCN1CCN(CCO)CC1)c1ccccc1S2")
"F"

Hi, sorry to bother you, what did the test record for Cc1cn2c(=O)n(c1=O)Cc1ccccc1C2 ?
F

Hi, sorry to bother you, what did the test record for COc1cc2c(cc1OCCCN1CCN(c3cc(=O)oc4c(C)c(OC)ccc34)CC1)N=C[C@@H]1CCCN1C2=O ?
T

Hi, sorry to bother you, what did the test record for COc1cc2c(cc1OC)-c1c(c3ccc([N+](=O)[O-])cc3c(=O)n1CCCN)C2=O ?
F

Hi, sorry to bother you, what did the test record for O=[N+]([O-])c1cccc(-c2cc(-c3cc(Br)ccc3O)[nH]n2)c1 ?
F

Hi, sorry to bother you, what did the test record for N=C(N)c1ccc(-c2ccc(-c3ccc(F)cc3)o2)o1 ?
F
